biological target: IGF-1R (Homo sapiens); construct: purchased CARNA BIOSCIENCE 08-141; test: IGF-1R inhibition assay (Caliper EZ Reader); format: biochemical; conditions: enzyme assay
reportedProperty: IC50 (nM)

C=CC(=O)Nc1cc(Nc2nccc(-n3cc(C(C)=O)c4ccccc43)n2)c(OC)cc1N(C)CCN(C)C [Example 31]; 765
C=CC(=O)Nc1cc(Nc2nccc(-n3cc(S(N)(=O)=O)c4ccccc43)n2)c(OC)cc1N(C)CCN(C)C [Example 17]; 71.2
C=CC(=O)Nc1cc(Nc2nccc(-n3nc(N(C)C)c4ccccc43)n2)c(OC)cc1N(C)CCN(C)C [Example 42]; 337
C=CC(=O)Nc1cc(Nc2nccc(-c3c[nH]c4c(OC)nccc34)n2)c(OC)cc1N(C)CCN(C)C [Example 23]; 271
C=CC(=O)Nc1cc(Nc2nccc(-n3nc(N(C)C)c4ncccc43)n2)c(OC)cc1N(C)CCN(C)C [Example 55]; 1300
C=CC(=O)Nc1cc(Nc2nccc(-n3nc(NCC)c4ccccc43)n2)c(OC)cc1N(C)CCN(C)C [Example 41]; 1420
C=CC(=O)Nc1cc(Nc2nccc(-n3nc(C(C)(C)O)c4ccccc43)n2)c(OC)cc1N(C)CCN(C)C [Example 45]; 1270

###

system: PC9 cells (SM); experiment: PC-9 growth inhibition assay (cell proliferation), Method B; format: cell-based, human; settings: cellular proliferation, 72 h, several runs, hydrochloride
pIC50: −log10 of the molar value. Counter-ions that a name gives are not always drawn.
Reported pIC50 is given for each of the following compounds.
reportedProperty: pIC50

C=CC(=O)Nc1cc(Nc2nccc(-c3cc(C(N)=O)cc4c3ccn4C)n2)c(OC)cc1N(C)CCN(C)C [Example 34, hydrochloride]; 7.96
C=CC(=O)Nc1cc(Nc2nccc(-c3cc(C(N)=O)c4c(c3)c(Cl)cn4C)n2)c(OC)cc1N(C)CCN(C)C [Example 32, hydrochloride]; 7.92

###

test system: PC9 cells (SM); experiment: PC-9 growth inhibition assay (cell proliferation), Method B; format: cell-based, human; settings: Homo sapiens, PC-9, 72 h, cellular proliferation, several runs
pIC50: −log10 of the molar value.
Is pIC50 at least 8? Then rule met. If not, rule not met.

C=CC(=O)Nc1cc(Nc2nccc(-n3nc(C(N)=O)c4c3CCC4)n2)c(OC)cc1N(C)CCN(C)C; rule not met
C=CC(=O)Nc1cc(Nc2nccc(-n3nc(NCC4CC4)c4ccccc43)n2)c(OC)cc1N(C)CCN(C)C; rule met
C=CC(=O)Nc1cc(Nc2nccc(-n3nc(NS(C)(=O)=O)c4ccccc43)n2)c(OC)cc1N(C)CCN(C)C; rule not met
C=CC(=O)Nc1cc(Nc2nccc(-c3c[nH]c4c(C(=O)NC)cccc34)n2)c(OC)cc1N(C)CCN(C)C; rule met
C=CC(=O)Nc1cc(Nc2nccc(-c3c[nH]c4c(C(N)=O)cccc34)n2)c(OC)cc1N(C)CCN(C)C; rule met

###

Reported IC50 is given for each of the following molecules.
biological target: IGF-1R (Homo sapiens, UniProt P08069); construct: purchased CARNA BIOSCIENCE 08-141; experiment: IGF-1R inhibition assay (Caliper EZ Reader); format: biochemical; details: enzyme assay
Sequence (P08069 959-1367 limits assumed): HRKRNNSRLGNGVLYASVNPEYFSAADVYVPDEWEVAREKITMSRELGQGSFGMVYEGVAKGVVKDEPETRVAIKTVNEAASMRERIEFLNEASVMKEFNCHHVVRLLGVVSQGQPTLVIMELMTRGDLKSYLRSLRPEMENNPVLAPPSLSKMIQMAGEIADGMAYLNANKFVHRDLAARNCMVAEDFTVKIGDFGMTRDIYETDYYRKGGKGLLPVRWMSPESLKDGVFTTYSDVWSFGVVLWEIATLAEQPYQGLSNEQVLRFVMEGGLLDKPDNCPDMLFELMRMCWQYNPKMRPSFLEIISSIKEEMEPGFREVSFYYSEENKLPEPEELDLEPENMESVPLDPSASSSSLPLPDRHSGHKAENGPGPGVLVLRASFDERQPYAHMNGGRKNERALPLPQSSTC
reportedProperty: IC50 (nM)

C=CC(=O)Nc1cc(Nc2nccc(-n3nc(NC)c4ccccc43)n2)c(OC)cc1N(C)CCN(C)C; 180
C=CC(=O)Nc1cc(Nc2nccc(-n3nc(C(N)=O)c4ccccc43)n2)c(OC)cc1N(C)CCN(C)C; 2.15
C=CC(=O)Nc1cc(Nc2nccc(-c3cc(C#N)c4[nH]cc(C)c4c3)n2)c(OC)cc1N(C)CCN(C)C; 243

Origin of the recorded values: patent US10435388B2
